Hello, the source for this data is ChEMBL document CHEMBL1156829, in case you need it.

- Test system: Plasmodium falciparum
- assayNotes: NOVARTIS: Inhibition of Plasmodium falciparum 3D7 (drug-susceptible) proliferation in erythrocyte-based infection assay
- Assay type: functional, organism-based
- protocolConditions: Plasmodium falciparum, 3D7
Measured EC50, listed per entry for reference.

// solved cases for EC50 follow
COc1ccccc1C(=O)NN=C(C)c1cccnc1 : > 1250 nM
Cc1ccc(CN2CCN(Cc3ccccc3)CC2)o1 : > 1250 nM
Clc1cc(N2CCCCC2)c(Cl)nn1 : > 1250 nM
COc1cccc(-c2cc(N=C(NCc3ccco3)SC)n[nH]2)c1 : > 11300 nM

Ask: // fetch EC50 given entry c1ccc(CSc2nc3ccncc3[nH]2)cc1
Reply: > 1250 nM

Ask: Answer with the recorded EC50 for the molecule listed here: CCCCCN(C(=O)CCc1ccccc1)C(CC)c1nc2ccccc2c(=O)n1-c1ccc(Cl)cc1C (stereo unspecified)
Reply: > 1000 nM

Ask: Quick one: give measured EC50 for c1ccc(Cc2nc(NCc3ccc4c(c3)OCO4)c3c4c(sc3n2)CCCC4)cc1
Reply: > 1250 nM

Ask: Query EC50 for CCCCCCN(C(=O)c1ccc(C(C)(C)C)cc1)C(CC)c1nc2ccccc2c(=O)n1-c1ccccc1OC (stereo unspecified)
Reply: 356 nM

Ask: Identify the reported EC50 for the following entry. COC(=O)c1cn2c(=O)c3ccccc3nc2c2ccccc12
Reply: > 385 nM

----------
- System: Plasmodium falciparum
- assayNotes: NOVARTIS: Inhibition of Plasmodium falciparum W2 (drug-resistant) proliferation in erythrocyte-based infection assay
- Type: functional, organism-based
- protocolConditions: Plasmodium falciparum, W2; read-out: EC50
Below, each of the molecules is paired with its reported EC50 value.
Report only the number, with the unit nM understood.

Ask: Item O=C1N(c2ccccc2)C[C@@H]2C[C@@H](c3ccc4nsnc4c3)N3CCC[C@@]123 : provide EC50
Reply: 641

Ask: Identify measured EC50 corresponding to CCCN1CCN(C(=O)CCNC(=O)Cn2cnc3ccccc3c2=O)CC1
Reply: 1590

Ask: Please look at this molecule and report its EC50: C[N+](C)(CCCC(=O)c1ccc(C(=O)CCC[N+](C)(C)Cc2ccccc2Cl)cc1)Cc1ccccc1Cl
Reply: 113

Ask: // Input: COc1ccc(CCN2CCC(Nc3nc4ccccc4n3Cc3ccc(F)cc3)CC2)cc1 . Output its EC50 only.
Reply: 711

Ask: Report measured EC50; entry is CCCN(CCC)CCNC(=O)c1cc2c(-c3ccc(Cl)cc3)nn(C)c2s1
Reply: 703

Ask: Return value of EC50 for input Cc1cc(Nc2ccc(Br)c(C)c2)n2nc(C)nc2n1 , no commentary.
Reply: 45.8

----------
- Test system: Plasmodium falciparum
- assayNotes: NOVARTIS: Inhibition of Plasmodium falciparum 3D7 (drug-susceptible) proliferation in erythrocyte-based infection assay
- Assay type: functional, organism-based
- protocolConditions: Plasmodium falciparum, 3D7
# reported EC50; entries follow
All answers are understood in nM, so give the number only.

CCCCc1ccc(NC(C)=O)cc1 : 214

Ask: Give me measured EC50, please, for this molecule: Cc1ccc(N=C2NC(=O)/C(=C\c3cc(C)n(-c4cccc([N+](=O)[O-])c4)c3C)S2)cc1
Reply: 442

----------
- Tested on: Plasmodium falciparum
- assayNotes: NOVARTIS: Inhibition of Plasmodium falciparum W2 (drug-resistant) proliferation in erythrocyte-based infection assay
- Assay type: functional, organism-based
- protocolConditions: Plasmodium falciparum, W2; read-out: EC50
Rule: EC50 below 600 nM gives satisfied, anything at or above gives not satisfied.

Before answering, review these 10 worked examples.
COc1ccc(-c2c[n+](Cc3ccc(Cl)cc3Cl)c3n2CCC3)cc1 : not satisfied
Cc1ccc(OCC(=O)Nc2cccc(-c3nc4ncccc4o3)c2)cc1C : not satisfied
CC(C)OC(=O)NC(Nc1ccccc1)C(Cl)(Cl)Cl (stereo unspecified) : not satisfied
CNC(=O)NNC(=O)c1cccnc1 : not satisfied
CCCC(CCC)C(=O)Nc1ccc2c(c1)N(C(=O)CCCl)c1ccccc1CC2 : not satisfied
O=c1c(=Cc2ccc(Cl)cc2)sc2nc3ccccc3n12 : satisfied
CC(C)(C)NC(=S)Nc1cccc(Cl)c1Cl : not satisfied
c1ccc(CN2CCC(NCc3c[nH]c4ccccc34)CC2)cc1 : satisfied
C=CC1CN2CCC1CC2[C@@H](OC(=O)/C=C/c1ccc(Cl)cc1)c1ccnc2ccc(OC)cc12 (stereo partly specified) : satisfied
O=[N+]([O-])c1ccc(-n2cccc2C=NNc2ncnc3sc4c(c23)CCCC4)cc1 : not satisfied

# ---- query compound ----
Ask: Item Cc1ccc(C2CC(C(F)(F)F)n3ncc(C(=O)Nc4ccc(OC(F)(F)F)cc4)c3N2)cc1 (stereo unspecified) : EC50 beneath 600 nM, strictly?
Reply: satisfied

----------
- Tested on: Plasmodium falciparum
- assayNotes: NOVARTIS: Inhibition of Plasmodium falciparum 3D7 (drug-susceptible) proliferation in erythrocyte-based infection assay
- Type: functional, organism-based
- protocolConditions: Plasmodium falciparum, 3D7
Output Met for records whose EC50 is lower than 600 nM, Not met for records at or above 600 nM.

CCOc1ccc(N2C(=O)c3ccccc3NC2(C)C)cc1 : Not met
CC1(C)CC(=O)C(=CNc2nc3c(s2)CCc2c-3cnn2-c2ccccc2)C(=O)C1 : Not met

Ask: Please determine if COc1ccc2cc(CNCCc3cccc(Cl)c3)c(N3CCC(=O)N(CCN(C)C)CC3)nc2c1 is below 600 nM in terms of EC50.
Reply: Not met

Ask: State whether 600 nM exceeds EC50 recorded for COc1ccc(-c2nc(SCCCCC(=O)N3CCN(C(c4ccccc4)c4ccccc4)CC3)[nH]c2-c2ccc(OC)cc2)cc1 .
Reply: Not met

----------
Reported CC50 by item:
- assayNotes: NOVARTIS: Cytotoxicity against human hepatocellular carcinoma cell line (Huh7)
- Format: toxicity, cell-based, Huh-7
- protocolConditions: Huh7 cells (hepatocellular carcinoma cell line)

COC(C(=NO)c1ccc(Cl)cc1)c1ccccc1 (configuration not stated) : > 10 µM
CN1CCN(c2nc(NN=Cc3cccc(Cl)c3)nc(Nc3ccc([N+](=O)[O-])cc3)n2)CC1 : 43.4 µM
CCc1[nH]nc2c1C(Cc1ccccc1)C(C#N)=C(N)O2 (configuration not stated) : > 10 µM
CN(C)c1ccc(Nc2nc(NCC3CCCO3)c3ccccc3n2)cc1 (configuration not stated) : 11.3 µM
CC(=O)Oc1ccccc1-c1nc2cc(C)ccn2c1NC(C)(C)CC(C)(C)C : > 10 µM

Ask: Give a short answer stating reported CC50 for COC(=O)C1=C(C)NC2=C(C(=O)CC(c3ccc(Cl)cc3)C2)C1c1ccccc1 (configuration not stated) .
Reply: > 100 µM

Ask: Identify CC50 associated with the molecule Cc1ccc(C)c(NC(=O)c2c(-c3c(Cl)cccc3Cl)noc2C)c1
Reply: > 70.7 µM

Ask: Give CC50 for the following molecule: COC(=O)[C@@H]1C[C@H](NC(=O)c2ccc(OC)cc2OC)CN1Cc1cccc2ccccc12
Reply: > 10 µM

Ask: Provide measured CC50 value, entry: FC(F)(F)c1cccc(NC(=S)N2CCCC2c2ccccc2C(F)(F)F)c1 (configuration not stated)
Reply: > 10 µM

Ask: State its CC50 for this molecule: COc1ccc(CN(Cc2ccc(C(C)C)cc2)S(=O)(=O)c2ccc(S(=O)(=O)N3CCN(c4ccccc4F)CC3)cc2)cc1
Reply: > 100 µM

Ask: Dear colleague, please send me the reported CC50 for CN(CCCNc1ccnc2cc(Cl)ccc12)S(=O)(=O)c1cc(Cl)ccc1Cl when you can.
Reply: > 12.2 µM

Ask: # return recorded CC50 for entry OC1(c2ccc(Br)cc2)CCN(C2CCN(Cc3ccccc3)CC2)CC1
Reply: 9.26 µM

Ask: Note CC50 for the molecule shown: CC[n+]1c(C)cc2c([nH]c3ccccc32)c1C
Reply: > 100 µM

Ask: Entry C=CCNC(=O)c1ccc2c(c1)N=C(CC(C)c1ccccc1)N(CCCN1CCCC1=O)C2 (configuration not stated) needs its CC50 filled in; supply it.
Reply: > 10 µM

----------
- System: Plasmodium falciparum
- assayNotes: NOVARTIS: Inhibition of Plasmodium falciparum W2 (drug-resistant) proliferation in erythrocyte-based infection assay
- Format: functional, organism-based
- protocolConditions: Plasmodium falciparum, W2; read-out: EC50
endpointName: pEC50
API: returns pEC50 as number; meaning -log10 of concentration in mol/L.

Before answering, review these 4 worked examples.
CCC(c1nc2ccccc2c(=O)n1-c1cccc(Cl)c1)N(CCc1ccccc1)C(=O)c1ccc(F)cc1 (stereo not drawn) : 7.16
O=[N+]([O-])c1ccc(S(=O)(=O)N2CCN(C(=S)NCCc3ccccc3)CC2)cc1 : 7.01
COc1ccc(C2C(C(=O)Nc3cccc(Cl)c3)c3ccccc3C(=O)N2C2CCCCC2)cc1 (stereo not drawn) : 6.03
Cc1ccc(-c2cn3c([n+]2-c2ccc(C)cc2)CCCCC3)cc1 : 6.34

Ask: State, in one line, measured pEC50 of CCCCc1c(CCC)c(=N)c2ccccc2n1C
Reply: 6.37

Ask: State its pEC50: O=C1C(Nc2ccc(F)cc2)=C(N2CCCCC2)C(=O)c2ccccc21
Reply: 6.50

Ask: Read the entry Cc1nc(N2CCN(c3ccccn3)CC2)c2c(C)c(C(=O)Nc3c(F)cccc3F)sc2n1 and write its reported pEC50.
Reply: 6.16

Ask: Identify measured pEC50 associated with CNC1=C(N(Cc2ccc(Cl)c(Cl)c2)C(C)=O)C(=O)c2ccccc2C1=O
Reply: 8.90
